biological target: D(2) dopamine receptor (Homo sapiens, UniProt P14416); assay: Binding affinity to human D2S agonist site receptor by radioligand displacement assay
Sequence (P14416 whole entry): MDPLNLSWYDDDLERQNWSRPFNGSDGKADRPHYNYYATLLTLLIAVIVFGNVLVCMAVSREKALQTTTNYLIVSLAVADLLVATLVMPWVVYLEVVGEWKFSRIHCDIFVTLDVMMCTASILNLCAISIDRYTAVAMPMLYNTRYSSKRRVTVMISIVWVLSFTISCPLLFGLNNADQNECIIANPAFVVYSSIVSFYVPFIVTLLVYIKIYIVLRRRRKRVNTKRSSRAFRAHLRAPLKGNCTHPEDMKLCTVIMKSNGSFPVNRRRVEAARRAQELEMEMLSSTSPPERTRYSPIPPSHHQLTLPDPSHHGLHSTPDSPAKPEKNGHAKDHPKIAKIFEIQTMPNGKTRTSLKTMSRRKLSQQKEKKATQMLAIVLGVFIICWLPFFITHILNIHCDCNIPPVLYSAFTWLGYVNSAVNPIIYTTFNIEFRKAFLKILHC
pKi: −log10 of the molar value.
READOUT: pKi

Recorded pKi for O=C(Cc1ccccc1)NC1CCN(CCCN2C(=O)COc3ccccc32)CC1 with D(2) dopamine receptor (Homo sapiens, UniProt P14416), please? ≤ 6.00

###

experiment: Binding affinity to PDE5 by enzyme assay
pKi: −log10 of the molar value.
READOUT: pKi

Fill in the blank: the reported pKi of O=C(Cc1ccccc1)NC1CCN(CCCN2C(=O)COc3ccccc32)CC1 is ____. ≤ 6.00

###

target: Adenosine receptor A1 (Homo sapiens, UniProt P30542); assay: Binding affinity to human adenosine A1 receptor agonist site by radioligand displacement assay
Sequence (P30542 whole entry): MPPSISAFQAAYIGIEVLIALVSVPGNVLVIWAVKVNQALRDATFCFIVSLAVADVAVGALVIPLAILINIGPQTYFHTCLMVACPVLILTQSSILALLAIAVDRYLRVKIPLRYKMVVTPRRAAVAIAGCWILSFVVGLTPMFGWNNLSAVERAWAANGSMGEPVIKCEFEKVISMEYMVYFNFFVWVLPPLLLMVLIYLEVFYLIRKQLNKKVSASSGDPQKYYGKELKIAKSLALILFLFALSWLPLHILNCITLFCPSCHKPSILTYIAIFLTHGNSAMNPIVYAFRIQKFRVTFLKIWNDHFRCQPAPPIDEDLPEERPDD
pKi: −log10 of the molar value.
READOUT: pKi

What value of pKi has been recorded for this entry: O=C(Cc1ccccc1)NC1CCN(CCCN2C(=O)COc3ccccc32)CC1 ≤ 6.00
